target: BRG-1 (Homo sapiens, UniProt P51532); assay: ATPase catalytic activity assay of BRG-1 (ADP-Glo); type: biochemical; settings: ATPase catalytic activity, ADP-Glo; read-out: BRG1 Max % Inhibition
Sequence (P51532 whole entry): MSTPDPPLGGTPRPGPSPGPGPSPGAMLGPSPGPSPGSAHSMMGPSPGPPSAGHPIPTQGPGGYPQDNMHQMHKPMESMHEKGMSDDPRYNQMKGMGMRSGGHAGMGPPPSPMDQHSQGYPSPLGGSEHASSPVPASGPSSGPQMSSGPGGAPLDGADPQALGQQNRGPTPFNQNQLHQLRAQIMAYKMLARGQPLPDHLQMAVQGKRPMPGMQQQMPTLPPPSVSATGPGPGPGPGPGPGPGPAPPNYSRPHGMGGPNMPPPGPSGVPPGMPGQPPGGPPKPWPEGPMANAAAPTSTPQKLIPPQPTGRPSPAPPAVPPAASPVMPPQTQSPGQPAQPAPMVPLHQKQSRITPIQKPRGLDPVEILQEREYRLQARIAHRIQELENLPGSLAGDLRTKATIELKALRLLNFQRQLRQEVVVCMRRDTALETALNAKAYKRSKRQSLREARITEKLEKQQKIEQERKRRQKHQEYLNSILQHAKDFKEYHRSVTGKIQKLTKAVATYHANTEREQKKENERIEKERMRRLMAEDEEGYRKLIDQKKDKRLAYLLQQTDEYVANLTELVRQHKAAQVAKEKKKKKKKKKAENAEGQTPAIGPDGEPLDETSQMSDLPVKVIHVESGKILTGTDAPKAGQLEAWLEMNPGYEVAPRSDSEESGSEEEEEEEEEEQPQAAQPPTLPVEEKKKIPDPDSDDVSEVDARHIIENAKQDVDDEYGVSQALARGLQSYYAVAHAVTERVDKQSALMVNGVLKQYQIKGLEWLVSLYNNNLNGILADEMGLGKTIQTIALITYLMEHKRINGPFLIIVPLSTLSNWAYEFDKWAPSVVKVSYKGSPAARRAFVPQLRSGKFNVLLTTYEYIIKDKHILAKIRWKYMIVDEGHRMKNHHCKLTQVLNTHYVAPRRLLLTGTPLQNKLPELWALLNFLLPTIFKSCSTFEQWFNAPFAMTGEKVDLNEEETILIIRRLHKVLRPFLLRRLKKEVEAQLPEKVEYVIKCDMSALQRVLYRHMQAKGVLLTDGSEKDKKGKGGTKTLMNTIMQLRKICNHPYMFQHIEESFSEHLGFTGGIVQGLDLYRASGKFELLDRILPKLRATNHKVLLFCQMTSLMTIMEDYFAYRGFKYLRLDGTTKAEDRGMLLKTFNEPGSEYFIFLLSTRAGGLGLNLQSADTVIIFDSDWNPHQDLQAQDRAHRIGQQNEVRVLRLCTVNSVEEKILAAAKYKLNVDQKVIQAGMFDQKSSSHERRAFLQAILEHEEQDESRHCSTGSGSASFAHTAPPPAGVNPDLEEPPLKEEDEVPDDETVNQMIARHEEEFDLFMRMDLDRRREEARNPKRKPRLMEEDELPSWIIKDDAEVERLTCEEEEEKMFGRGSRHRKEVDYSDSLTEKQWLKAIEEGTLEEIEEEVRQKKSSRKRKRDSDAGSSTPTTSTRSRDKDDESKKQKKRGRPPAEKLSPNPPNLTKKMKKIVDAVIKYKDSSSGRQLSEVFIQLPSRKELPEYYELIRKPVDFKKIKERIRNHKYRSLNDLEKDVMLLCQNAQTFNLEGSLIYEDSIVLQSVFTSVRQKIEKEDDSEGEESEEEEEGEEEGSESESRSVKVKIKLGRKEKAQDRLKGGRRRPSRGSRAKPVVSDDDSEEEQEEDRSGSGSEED
Let's look at some compounds and their measured Emax.

compound=CC(C)(CN)c1cccc(C(=O)NCC(=O)Nc2nc(-c3cccc(-c4cc(C#N)cc(C#N)c4)c3)cs2)c1 result="> 70%"
compound=CC(C)(CN)c1cccc(C(=O)NCC(=O)Nc2nc(-c3cccc(-c4cccc(Cl)c4)c3)cs2)c1 result="> 50%"
compound=C[C@@H]1CN(c2cccc(-c3csc(NC(=O)CNC(=O)c4ccc5c(c4)[C@@H]([C@H](C)O)CC5)n3)n2)C[C@H](C)O1 result="> 50%"
compound=C[C@@H]1CN(c2cccc(-c3csc(NC(=O)CNC(=O)c4ccc5c(c4)[C@](C)(CO)CN5C)n3)c2)C[C@H](C)O1 result="> 90%"
compound=Cn1cc(-c2cccc(-c3csc(NC(=O)CNC(=O)c4cccc(C(C)(C)CO)c4)n3)c2)cn1 result="> 70%"
compound="C[C@@H]1CN(c2cccc(-c3csc(NC(=O)CNC(=O)c4cccc(C5(C(F)F)CCOC5)c4)n3)c2)C[C@H](C)O1 (some centres unmarked)" result="> 95%"
compound=COC(=O)N1CCC(c2csc(NC(=O)CNC(=O)c3ccc4c(c3)[C@](C)(F)COC4)n2)CC1 result="> 90%"
compound=CC(=O)N1CC(c2cccc(-c3csc(NC(=O)CNC(=O)c4ccc5c(c4)[C@](C)(C#N)COC5)n3)c2)C1 result="> 95%"

Q: Endpoint output: Emax of COc1cccc(-c2csc(NC(=O)CNC(=O)c3cc(OC)c4c(c3)[C@](C)(C#N)COC4)n2)c1 . Value?
Result: > 90%

Q: Could you share which Emax value was measured for Cn1cnc2ccc(-c3csc(NC(=O)CNC(=O)c4ccc5c(c4)[C@@](C)(CO)CC5)n3)cc21 ?
Result: > 30%

Q: Bench note: what Emax did CCC(C)(O)c1cccc(C(=O)NCC(=O)Nc2nc(-c3cccc(-c4ccncc4)c3)cs2)c1 (single isomer, unassigned) [Compound 80] show?
Result: > 80%
